# Test System: mGlyT-1b (Mus musculus, UniProt P28571)
# Construct: host or cells: Flp-in-CHO
# Sequence (P28571 1-651 isoform P28571-2): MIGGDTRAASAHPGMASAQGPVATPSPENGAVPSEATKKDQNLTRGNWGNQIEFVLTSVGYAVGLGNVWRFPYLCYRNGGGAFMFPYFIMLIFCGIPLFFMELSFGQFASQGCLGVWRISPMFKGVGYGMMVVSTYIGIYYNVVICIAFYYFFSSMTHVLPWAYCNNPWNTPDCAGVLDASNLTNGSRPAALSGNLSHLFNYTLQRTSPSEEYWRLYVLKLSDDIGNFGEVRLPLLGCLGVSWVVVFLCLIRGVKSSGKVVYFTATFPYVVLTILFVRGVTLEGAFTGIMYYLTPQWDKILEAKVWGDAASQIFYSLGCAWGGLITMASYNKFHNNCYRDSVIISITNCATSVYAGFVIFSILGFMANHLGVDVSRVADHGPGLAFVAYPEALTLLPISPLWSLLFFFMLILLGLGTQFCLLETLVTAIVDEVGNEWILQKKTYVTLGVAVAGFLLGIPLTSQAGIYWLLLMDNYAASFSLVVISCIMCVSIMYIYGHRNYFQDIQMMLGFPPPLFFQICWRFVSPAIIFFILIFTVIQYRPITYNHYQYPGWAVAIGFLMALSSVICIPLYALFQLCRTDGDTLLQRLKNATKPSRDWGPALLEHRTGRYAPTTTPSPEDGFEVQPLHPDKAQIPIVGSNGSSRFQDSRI
# Assay: Glycine uptake inhibition assay (mGlyT-1b), [3H]-glycine uptake in transfected Flp-in-CHO cells
# Format: cell-based
# Settings: Flp-in-CHO cells transfected with mGlyT-1b cDNA; [3H]-glycine 60 nM and 25 μM non-radioactive glycine; 20 min preincubation at 22° C.; read-out: IC50 (μM) at GlyT-1; Ic50 (hglyt1b)
# Procedure: Nutrient mixture F-12 (Gibco Life-technologies), fetal bovine serum (FBS) 5%, (Gibco life technologies), Penicillin/Streptomycin 1% (Gibco life technologies), Hygromycin 0.6 mg/ml (Gibco life technologies), Glutamine 1 mM Gibco life technologies). 150 mM NaCl, 10 mM Hepes-Tris, pH 7.4, 1 mM CaCl2, 2.5 mM KCl, 2.5 mM MgSO4, 10 mM (+) D-glucose. Flp-in™-CHO (Invitrogen Cat n° R758-07) cells stably transfected with mGlyT1b cDNA. Glycine Uptake Inhibition Assay (mGlyT-1b) […]
Structures can show the parent of a compound that is named as a salt.
Measurement Type: IC50 (µM)
Field: numeric (µM). Do not append units.

Field: example entries. Status: answers known.
>  <Compound>
N[C@@H](c1ccc(Cl)c(Cl)c1)[C@H](O)c1ccc(OCCC(F)(F)F)cc1 (racemic)

>  <Unit String>
µM

>  <Value Observed>
0.772

$$$$
>  <Compound>
N[C@@H](c1ccc(Cl)c(Cl)c1)[C@H](O)c1cc(F)c(OC2CCOCC2)c(F)c1 (racemic) [Example 20, hydrochloride]

>  <Unit String>
µM

>  <Value Observed>
0.09

$$$$
>  <Compound>
COc1cc([C@@H](O)[C@@H](N)c2ccc(Cl)c(Cl)c2)ccc1-c1cncc(F)c1 (racemic) [Example 3, dihydrochloride]

>  <Unit String>
µM

>  <Value Observed>
0.186

$$$$
>  <Compound>
Cc1ccccc1-c1ccc([C@@H](O)[C@@H](N)c2ccc(Cl)cc2)cc1 (racemic)

>  <Unit String>
µM

>  <Value Observed>
0.642

$$$$
>  <Compound>
Cc1cccc(-c2ccc([C@@H](O)[C@@H](N)c3ccc(Cl)cc3)cc2)c1 (racemic)

>  <Unit String>
µM

>  <Value Observed>
0.342

$$$$
>  <Compound>
N[C@@H](c1ccc(Cl)c(Cl)c1)[C@H](O)c1ccc(OCC2CCOCC2)cc1 (racemic)

>  <Unit String>
µM

>  <Value Observed>
0.147

$$$$

Let us move to another entry and its IC50.
input: Returns the measured IC50 for the input compound. Input: CC(CO)(CCl)COc1ccc([C@@H](O)[C@@H](N)c2ccc(Cl)c(Cl)c2)cc1 (mixture of isomers) [Example 43, hydrochloride]
output: 0.053

----------
Reported IC50 values are given for each entry in this list.
# Test System: mGlyT-1b (Mus musculus, UniProt P28571)
# Construct: host or cells: Flp-in-CHO
# Assay: Glycine uptake inhibition assay (mGlyT-1b), [3H]-glycine uptake in transfected Flp-in-CHO cells
# Assay type: cell-based
# Settings: Flp-in-CHO cells transfected with mGlyT-1b cDNA; [3H]-glycine 60 nM and 25 μM non-radioactive glycine; 20 min preincubation at 22° C.; read-out: IC50 (μM) at GlyT-1; Ic50 (hglyt1b)
Kindly provide the numeric value in µM only, without the unit symbol.

Known results for molecules:
>  <Molecule>
CS(=O)(=O)c1cccc(-c2ccc([C@@H](O)[C@@H](N)c3ccc(Cl)cc3)cc2)c1 (racemic)

>  <Test System>
mGlyT-1b (Mus musculus, UniProt P28571)

>  <Measurement Type>
IC50

>  <Value Observed>
0.068

$$$$
>  <Molecule>
N[C@@H](c1ccc(Cl)cc1)[C@H](O)c1ccc(-c2cccc(C(F)(F)F)c2)cc1 (racemic)

>  <Test System>
mGlyT-1b (Mus musculus, UniProt P28571)

>  <Measurement Type>
IC50

>  <Value Observed>
0.93

$$$$
>  <Molecule>
COc1ccc(-c2ccc([C@@H](O)[C@@H](N)c3ccc(Cl)cc3)cc2)cn1 (racemic)

>  <Test System>
mGlyT-1b (Mus musculus, UniProt P28571)

>  <Measurement Type>
IC50

>  <Value Observed>
0.814

$$$$
>  <Molecule>
CC(=O)Nc1cccc(-c2ccc([C@@H](O)[C@@H](N)c3ccc(Cl)cc3)cc2)c1 (racemic)

>  <Test System>
mGlyT-1b (Mus musculus, UniProt P28571)

>  <Measurement Type>
IC50

>  <Value Observed>
0.173

$$$$
>  <Molecule>
Cc1ccc([C@H](N)[C@H](O)c2ccc(OC3CCOCC3)cc2)cc1Cl (racemic)

>  <Test System>
mGlyT-1b (Mus musculus, UniProt P28571)

>  <Measurement Type>
IC50

>  <Value Observed>
0.104

$$$$
>  <Molecule>
N[C@@H](c1ccc(Cl)c(Cl)c1)[C@H](O)c1ccc(OC2CCOCC2)cc1 (single isomer, unassigned) [Example 41]

>  <Test System>
mGlyT-1b (Mus musculus, UniProt P28571)

>  <Measurement Type>
IC50

>  <Value Observed>
0.021

$$$$

# next molecule below
input: Suppose we examine the molecule CC(C)(C)c1ccc([C@@H](O)[C@@H](N)c2ccc(Cl)c(Cl)c2)cc1 (racemic) ; what IC50 value has been reported?
output: 0.876

----------
# Test System: mGlyT-1b (Mus musculus)
# Construct: host or cells: Flp-in-CHO
# Assay: Glycine uptake inhibition assay (mGlyT-1b), [3H]-glycine uptake in transfected Flp-in-CHO cells
# Assay type: cell-based
# Settings: Flp-in-CHO cells transfected with mGlyT-1b cDNA; [3H]-glycine 60 nM and 25 μM non-radioactive glycine; 20 min preincubation at 22° C.; read-out: IC50 (μM) at GlyT-1; Ic50 (hglyt1b)
Structures can show the parent of a compound that is named as a salt.
Each item that follows carries a reported log10(IC50).
Scale: log10; quantity: IC50; unit before log: µM

Examples with their reported log10(IC50) follow.
>  <Compound>
N[C@@H](c1ccc(Cl)c(Cl)c1)[C@H](O)c1ccc(OC2CCOCC2)nc1 (racemic) [Example 22, dihydrochloride]

>  <Test System>
mGlyT-1b (Mus musculus)

>  <Value Observed>
-0.88

$$$$
>  <Compound>
Cc1ccc([C@H](N)[C@H](O)c2ccc(OC3CCOCC3)cc2)cc1F (racemic) [Example 57]

>  <Test System>
mGlyT-1b (Mus musculus)

>  <Value Observed>
-0.69

$$$$

input: Look up log10(IC50) for this compound: Cc1ccc([C@H](N)[C@H](O)c2ccc(OC3CCOC3)cc2)cc1Cl (mixture of isomers) [Example 55]
output: -0.88

input: Would you mind telling me what log10(IC50) value was observed for Cc1ccc([C@H](N)[C@H](O)c2ccc(-c3cncc(F)c3)cc2)cc1Cl (racemic) [Example 93] ?
output: -1.03

input: Query (compound): N[C@@H](c1ccc(Cl)cc1)[C@H](O)c1ccc(-c2cccc(OC(F)(F)F)c2)cc1 (racemic) [Example 78] ; field requested: log10(IC50)
output: -0.06

input: Consider the compound Cc1ccc([C@H](N)[C@H](O)c2ccc(-c3cccnc3)cc2)cc1Cl (racemic) [Example 92] and give its measured log10(IC50).
output: -1.08

input: Query: log10(IC50); subject: CS(=O)(=O)c1cccc(-c2ccc([C@@H](O)[C@@H](N)c3ccc(Cl)c(Cl)c3)cc2)c1 (racemic) [Example 7]
output: -1.39

----------
# Test System: mGlyT-1b (Mus musculus)
# Construct: host or cells: Flp-in-CHO
# Assay: Glycine uptake inhibition assay (mGlyT-1b), [3H]-glycine uptake in transfected Flp-in-CHO cells
# Type: cell-based
# Settings: Flp-in-CHO cells transfected with mGlyT-1b cDNA; [3H]-glycine 60 nM and 25 μM non-radioactive glycine; 20 min preincubation at 22° C.; read-out: IC50 (μM) at GlyT-1; Ic50 (hglyt1b)
# Method: Nutrient mixture F-12 (Gibco Life-technologies), fetal bovine serum (FBS) 5%, (Gibco life technologies), Penicillin/Streptomycin 1% (Gibco life technologies), Hygromycin 0.6 mg/ml (Gibco life technologies), Glutamine 1 mM Gibco life technologies). 150 mM NaCl, 10 mM Hepes-Tris, pH 7.4, 1 mM CaCl2, 2.5 mM KCl, 2.5 mM MgSO4, 10 mM (+) D-glucose. Flp-in™-CHO (Invitrogen Cat n° R758-07) cells stably transfected with mGlyT1b cDNA. Glycine Uptake Inhibition Assay (mGlyT-1b) […]
Structures can show the parent of a compound that is named as a salt.
The threshold is 0.3 µM. Values of IC50 beneath it are tagged Y; values meeting or exceeding it are tagged N.

Known results for compounds:
>  <Compound>
Cc1cc([C@@H](O)[C@@H](N)c2ccc(Cl)c(Cl)c2)cnc1OC1CCOCC1 (racemic) [Example 26, dihydrochloride]

>  <Class Label>
Y

$$$$
>  <Compound>
N[C@@H](c1ccc(Cl)cc1)[C@H](O)c1ccc(-c2cccc(Cl)c2)cc1 (racemic)

>  <Class Label>
N

$$$$

input: State whether 0.3 µM exceeds IC50 recorded for N[C@@H](c1ccc(Cl)cc1)[C@H](O)c1ccc(N2CCOCC2)nc1 (racemic) .
output: N

input: A record lists CC(C)Oc1cccc(-c2ccc([C@@H](O)[C@@H](N)c3ccc(Cl)c(Cl)c3)cc2)c1 (racemic) . Is its IC50 below 0.3 µM?
output: N

input: Record N[C@@H](c1ccc(Cl)c(Cl)c1)[C@H](O)c1ccc(OC2CCOCC2)cc1 (racemic) [Example 40] : is its IC50 strictly below 0.3 µM?
output: Y

Every entry's value here was drawn from patent US8367838B2.
